Target: T1, Human FM3 (human, UniProt Q9HB89 1-426)
T1 construct: whole, on cells; Assayed as the membrane fraction of FM3-expressing CHO cells (1.2 mg/mL protein); also called NMUR1; FM3 receptor
T1 sequence (looked up): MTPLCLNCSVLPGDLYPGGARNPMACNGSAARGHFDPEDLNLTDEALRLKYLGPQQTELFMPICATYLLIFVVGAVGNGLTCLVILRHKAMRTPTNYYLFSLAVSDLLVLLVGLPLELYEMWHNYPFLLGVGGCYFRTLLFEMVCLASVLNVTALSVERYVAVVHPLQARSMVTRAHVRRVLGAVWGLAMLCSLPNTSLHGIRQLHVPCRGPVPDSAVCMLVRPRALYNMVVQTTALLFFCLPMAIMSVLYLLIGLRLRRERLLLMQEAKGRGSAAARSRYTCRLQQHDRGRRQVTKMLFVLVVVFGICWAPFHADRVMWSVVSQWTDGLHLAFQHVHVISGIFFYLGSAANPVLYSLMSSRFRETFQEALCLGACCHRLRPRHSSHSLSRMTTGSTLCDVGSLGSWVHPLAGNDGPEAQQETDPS
Test: displacement of 125I-NMU8 from human FM3 CHO membrane fraction; IC50 relative to NMU-8;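 note: binding reaction run for 70 min at 25 °C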
Non-standard residues stand in square brackets, D forms with d. No end group written: not given here. *: point of attachment. Acetyl(2-(piperazin-1-yl)) = O=C(CN1CCNCC1)*; PEG 30 kDa = methoxypolyethylene glycol 30k; Arg(Me) = CNC(=N)NCCC[C@H](N)C(=O)O; NMeR = CN[C@@H](CCCNC(=N)N)C(=O)O; NMeL = CN[C@@H](CC(C)C)C(=O)O; βAla = NCCC(=O)O
Below, each entry is listed with its recorded IC50 ratio.

Examples with their reported IC50 ratio follow.
BINDER | IC50 ratio
{Acetyl(2-(piperazin-1-yl))}-YELFRARN-NH2 (SMILES CC(C)C[C@H](NC(=O)[C@H](CCC(=O)O)NC(=O)[C@H](Cc1ccc(O)cc1)NC(=O)CN1CCNCC1)C(=O)N[C@@H](Cc1ccccc1)C(=O)N[C@@H](CCCNC(=N)N)C(=O)N[C@@H](C)C(=O)N[C@@H](CCCNC(=N)N)C(=O)N[C@@H](CC(N)=O)C(N)=O, also called 2-(piperazin-1-yl)acetyl-[Glu2,Ala6]-NMU8) [NpipAc0,Glu2,Ala6-NMU-8 (Compound 19)] | 24000 ratio to NMU-8 (=1)
[βAla]YF[NMeL]FRP[NMeR]N-NH2 (N-terminus assumed; SMILES CC(C)C[C@@H](C(=O)N[C@@H](Cc1ccccc1)C(=O)N[C@@H](CCCNC(=N)N)C(=O)N1CCC[C@H]1C(=O)N(C)[C@@H](CCCNC(=N)N)C(=O)N[C@@H](CC(N)=O)C(N)=O)N(C)C(=O)[C@H](Cc1ccccc1)NC(=O)[C@H](Cc1ccc(O)cc1)NC(=O)CCN) [β-Ala0,NMeLeu3,NMeArg7-NMU-8 (Compound 15)] | 8.6 ratio to NMU-8 (=1)
[βAla]PFLFRPRN-NH2 (N-terminus assumed; SMILES CC(C)C[C@H](NC(=O)[C@H](Cc1ccccc1)NC(=O)[C@@H]1CCCN1C(=O)CCN)C(=O)N[C@@H](Cc1ccccc1)C(=O)N[C@@H](CCCNC(=N)N)C(=O)N1CCC[C@H]1C(=O)N[C@@H](CCCNC(=N)N)C(=O)N[C@@H](CC(N)=O)C(N)=O) [β-Ala0,Pro1-NMU-8 (Compound 8)] | 0.59 ratio to NMU-8 (=1)
{PEG 30 kDa-βAla}-RFLFRPRN-NH2 (also called PEG-NH-β-Ala0,Arg1-NMU-8) [PEG30k-NH-β-Ala0,Arg1-NMU-8 (Compound G)] | 1.5 ratio to NMU-8 (=1)
{PEG 30 kDa-βAla}-YFLFQPRN-NH2 (also called PEG-NH-β-Ala0,Gln5-NMU-8) [PEG30k-NH-β-Ala0,Gln5-NMU-8 (Compound A)] | 160 ratio to NMU-8 (=1)

Proceeding to the next binder to report its IC50 ratio.
Recorded IC50 ratio (binder [βAla]YFLFRP[Arg(Me)]N-NH2 (N-terminus assumed; SMILES CNC(=N)NCCC[C@H](NC(=O)[C@@H]1CCCN1C(=O)[C@H](CCCNC(=N)N)NC(=O)[C@H](Cc1ccccc1)NC(=O)[C@H](CC(C)C)NC(=O)[C@H](Cc1ccccc1)NC(=O)[C@H](Cc1ccc(O)cc1)NC(=O)CCN)C(=O)N[C@@H](CC(N)=O)C(N)=O) [β-Ala0,Arg(Me)7-NMU-8 (Compound 14)] ): 6.3 ratio to NMU-8 (=1)
